Data origin: the NIST ThermoML archive (doi:10.1016/j.jct.2017.07.018)

Conditions: 350 K; Liquid; Gas chromatography
Numbers after ± are expanded uncertainties.
endpointName: vapor or sublimation pressure

> print(dat)
                                   molecule                   endpointname  recordedmeasurement
1     OC12CC3CC(CC(C3)C1)C2 [1-adamantanol]  vapor or sublimation pressure     0.15 ± 0.021 kPa
2  C[C@@H]1CC[C@H]2C(C)(C)[C@H]3C[C@@]12CC[C@@]3(C)O [(+)-cedrol]  vapor or sublimation pressure    0.013 ± 0.004 kPa
3  C=CC(C)(O)CC/C=C(/C)CCC=C(C)C (centres undefined) [(Z)-3,7,11-trimethyldodeca-1,6,10-trien-3-ol]  vapor or sublimation pressure    0.016 ± 0.005 kPa
4  C=CC(C)(O)CC/C=C(\C)CCC=C(C)C (centres undefined) [(E)-3,7,11-trimethyldodeca-1,6,10-trien-3-ol]  vapor or sublimation pressure    0.013 ± 0.004 kPa
